Measured values drawn from ChEMBL document CHEMBL1201862 for this set.

tested on: HT-29; test: NCI tumour cell line growth inhibition, 48 h
Activity calls are given as the source filed them. Cut-off read from the data, not from the text of the source: active = GI50 up to about 1.1 µM and inactive = higher.
Returns: one label drawn from 1 for active, 0 for inactive

Ask | Name the outcome recorded for NCCNCC(O)CO (stereo not given) in the assay.
Reply | 0

Ask | Name the outcome recorded for O=C(CCC(=O)Nc1ccc(Cl)cc1)CC(=O)c1ccc(F)cc1 in the assay.
Reply | 0

Ask | Name the outcome recorded for FC(F)(F)c1nc2ccc(SSc3ccc4nc(C(F)(F)F)[nH]c4c3)cc2[nH]1 in the assay.
Reply | 0

Ask | Name the outcome recorded for CCCCCc1c(CCCC)c(=O)[nH]c2cc(CNCC(OC)OC)ccc12 in the assay.
Reply | 0

Ask | Name the outcome recorded for CSc1c(C#N)c(=O)[nH]c2[nH]nc(C)c12 in the assay.
Reply | 0

Ask | Name the outcome recorded for O=C1NCCN1/N=C/c1c(Cl)n(-c2ccccc2)c2ccccc12 in the assay.
Reply | 0

Ask | Name the outcome recorded for CCCC1N2CCCCC2[C@@H]2c3[nH]c4ccccc4c3CCN12 (stereo not given in full) in the assay.
Reply | 0

Ask | Name the outcome recorded for Cc1cccc(/N=N/C(=N\NC(=O)c2cc(Cl)ccc2O)c2ccc(N(CCC#N)CCC#N)cc2C)c1 in the assay.
Reply | 0

Ask | Name the outcome recorded for N/N=C1\C(=O)N(Cc2ccccc2)C(=O)C1C(=O)NCc1ccccc1 (stereo not given) in the assay.
Reply | 0

Ask | Name the outcome recorded for CC1C(OS(=O)(=O)c2ccc3nc(S)sc3c2)CC2C3(C)CCC2(C(C)C(=O)O)C(O)C13 (stereo not given) in the assay.
Reply | 0

Ask | Name the outcome recorded for COc1ccc(/N=N/c2c(O)ccc3ccccc23)cc1 in the assay.
Reply | 0

Ask | Name the outcome recorded for Fc1cc(-c2ncc(Cl)cc2Cl)c2cccccc1-2 in the assay.
Reply | 0

Ask | Name the outcome recorded for c1ccc(C(=NNc2nc3ccccc3[nH]2)c2ccccn2)nc1 in the assay.
Reply | 1

Ask | Name the outcome recorded for CCC1C(c2cccc(OC)c2O)c2cc3c(cc2OC1N1CCCC1)OCO3 (stereo not given) in the assay.
Reply | 0

Ask | Name the outcome recorded for Cc1ccc(Nc2cn(COCc3ccccc3)c(=O)[nH]c2=O)cc1 in the assay.
Reply | 0

Ask | Name the outcome recorded for O=C1CC[C@H]2CNC(=O)C[C@H]2C1 in the assay.
Reply | 0

Ask | Name the outcome recorded for CCOC(=O)CSc1nc(-c2ccc(Cl)cc2)c(C#N)c(=O)[nH]1 in the assay.
Reply | 0

Ask | Name the outcome recorded for CCOC(=O)NC(N(C)C(C(C)C)P(=O)(OCC)OCC)(C(F)(F)F)C(F)(F)F (stereo not given) in the assay.
Reply | 0

Ask | Name the outcome recorded for Cc1cccc(CC(C)(C)C)c1NC(=O)C(=O)C(C(=O)c1ccc2ccccc2c1)C1OC(=O)c2ccccc21 (stereo not given) in the assay.
Reply | 0

Ask | Name the outcome recorded for CCO/C=N/NC(=O)CSc1nc2ccc(I)cc2c(=O)n1Cc1ccccc1 in the assay.
Reply | 0

* * *

system: UACC-62; assay: NCI tumour cell line growth inhibition, 48 h
The source made the active and inactive calls. Rule as the data show it: active = GI50 up to about 1.1 µM and inactive = higher. Where a SMILES comes first, the peptide text is derived from it. [ ]: non-standard residue; d: D form. The star is where a group is joined. ξ: configuration not given here. ξPhe(4-NO2) = NC(Cc1ccc([N+](=O)[O-])cc1)C(=O)O; Boc = CC(C)(C)OC(=O)*; OBn = c1ccc(CO*)cc1
Returns: one label drawn from active, inactive

Ask | Name the outcome recorded for C=C1Cc2cc(OC)c(OC)c(OC)c2-c2ccc(SC)c(=O)cc21 in the assay.
Reply | active

Ask | Name the outcome recorded for CC(C)(C)C(=O)C1CC(=O)c2ccccc2C1=O (centres undefined) in the assay.
Reply | inactive

Ask | Name the outcome recorded for CCCN(CCC)C1CCc2c(ccc3cc[nH]c23)C1 (centres undefined) in the assay.
Reply | inactive

Ask | Name the outcome recorded for BrCCCCCOc1ccc(-c2c3ccccc3c(-c3ccc(OCCCCCBr)cc3)c3ccccc23)cc1 in the assay.
Reply | inactive

Ask | Name the outcome recorded for O=C1CC[N+]2=Cc3ccccc3O[B-]2(c2ccccc2)O1 (centres undefined) in the assay.
Reply | inactive

Ask | Name the outcome recorded for CC/C(Cl)=N\OC(=O)Nc1ccc(C#N)cc1 in the assay.
Reply | inactive

Ask | Name the outcome recorded for CSc1nc2c(c(N(C)C)n1)C(O)n1c(nc3ccccc31)S2 (centres undefined) in the assay.
Reply | inactive

Ask | Name the outcome recorded for CC1(C)COC(c2cccnc2/C=N/O)=N1 in the assay.
Reply | inactive

Ask | Name the outcome recorded for NC1(C(=O)O)CCCC1C(=O)O (centres undefined) in the assay.
Reply | inactive

Ask | Name the outcome recorded for COc1cc2ccc3c4ccccc4cnc3c2cc1OC in the assay.
Reply | inactive

Ask | Name the outcome recorded for CC(C)(C)C(=O)O[C@@H]1COC2C(O)COC21 (some centres undefined) in the assay.
Reply | inactive

Ask | Name the outcome recorded for C/C(=N\NC(=S)NC(C)(C)C)c1nc2cccnc2[nH]1 in the assay.
Reply | inactive

Ask | Name the outcome recorded for CC(C)(C)OC(=O)NC(Cc1ccc([N+](=O)[O-])cc1)C(=O)NCC(=O)OCc1ccccc1 (centres undefined) (Boc-[ξPhe(4-NO2)]-Gly-OBn) in the assay.
Reply | inactive

Ask | Name the outcome recorded for O=C1NC(=O)C2C(=O)NC(=O)C1C2(c1ccccc1)c1cc[nH]c1 (centres undefined) in the assay.
Reply | inactive

* * *

system: LOX IMVI; assay: NCI tumour cell line growth inhibition, 48 h
The source made the active and inactive calls. No stated cut-off is given here; in the data, active = GI50 up to about 1.1 µM and inactive = higher.
measurementType: GI50

The molecule listed as CSc1ccc(Cc2cc(C(C)(C)C)cc(C(C)(C)C)c2O)cc1 has a reported GI50 of 10.4 µM (inactive)

The molecule listed as C=C(Cl)C(Cl)(CBr)CCCC(C)C (centres undefined) has a reported GI50 of > 100 µM (inactive)

The molecule listed as C=C(C(=O)O[C@H]1C/C(C)=C/CC/C(CO)=C/[C@H]2C(=O)OC(=C)[C@H]12)C(O)CO (some centres undefined) has a reported GI50 of 16.3 µM (inactive)

The molecule listed as COc1cc2c(cc1OC)[C@]1(O)C(=O)c3ccc4c(c3O[C@@H]1CO2)C[C@H](C(C)(C)O)O4 has a reported GI50 of 11.1 µM (inactive)

The molecule listed as CC1=CC(=O)NP(=O)(Oc2ccc(Cl)cc2)N1 (centres undefined) has a reported GI50 of > 100 µM (inactive)

The molecule listed as Cc1ccc(/N=N/C(=O)NNc2ccc(C)c([N+](=O)[O-])c2)cc1[N+](=O)[O-] has a reported GI50 of 17.3 µM (inactive)

The molecule listed as N#Cc1c(O)c2ccccc2[nH]c1=O has a reported GI50 of > 100 µM (inactive)

The molecule listed as N#Cc1ccc(C(C2C(=O)NC(=O)NC2=O)C2C(=O)NC(=O)NC2=O)cc1 has a reported GI50 of > 100 µM (inactive)

The molecule listed as N#CC(C(=O)C(N)=O)c1ccccc1Cl (centres undefined) has a reported GI50 of > 100 µM (inactive)

The molecule listed as CCOC(=O)CCC(NC(=O)c1ccc(NC(OC)c2nc3cc(C(F)(F)F)ccc3nc2-c2ccccc2)cc1)C(=O)OCC (centres undefined) has a reported GI50 of 10.4 µM (inactive)

The molecule listed as CO/N=C(\C(=O)N(C)n1cnnc1)c1csc(NC(c2ccccc2)(c2ccccc2)c2ccccc2)n1 has a reported GI50 of > 10 µM (inactive)

The molecule listed as COC1OC(OC)C2C(c3c(C)cc(C)cc3C)=NOC12 (centres undefined) has a reported GI50 of > 100 µM (inactive)

The molecule listed as CC(=O)NNc1nc(C)c(C(=O)NNC(=O)C(=O)Nc2ccc([N+](=O)[O-])cc2[N+](=O)[O-])s1 has a reported GI50 of > 100 µM (inactive)

The molecule listed as O=[N+]([O-])c1ccc2c(c1)n1c(N3CCCC3)[n+]3ccccc3c1c1c3ccccn3c(N3CCCC3)[n+]21.[O-][Cl+3]([O-])([O-])[O-].[O-][Cl+3]([O-])([O-])[O-] has a reported GI50 of > 100 µM (inactive)

The molecule listed as NC(=S)N/N=C(\C(=O)Nc1ccc(Cl)c(Cl)c1)C1=NN(c2ccccc2)C(c2cccc([N+](=O)[O-])c2)CC1=O (centres undefined) has a reported GI50 of 16.3 µM (inactive)

The molecule listed as COC(=O)c1cc2c(cc1CC1Cc3cc4c(cc3C1)CCC4)CCC2 has a reported GI50 of 24.3 µM (inactive)

The molecule listed as CC(C)C(/C=C/c1ccccc1)=N\NC(=O)N/N=C(/C=C/c1ccccc1)C(C)C has a reported GI50 of 32.4 µM (inactive)

The molecule listed as O=C1Nc2ccccc2/C1=C/c1c(Cl)[nH]c2ccc(O)cc12 has a reported GI50 of 2.75 µM (inactive)

The molecule listed as CC1=C(C(=O)NCc2ccccc2)C(c2ccc([N+](=O)[O-])cc2)C(C(=O)NCc2ccccc2)=C(C)N1 has a reported GI50 of 18.2 µM (inactive)
